Values compiled from patent US20210246166A1.

Each record here notes measured rat MASP1 IC50.
Biological target: T1, recombinant rat MASP1 active protease (amino acids 302-704, C-terminal His Tag) (rat, UniProt Q8CHN8 302-704)
T1 sequence: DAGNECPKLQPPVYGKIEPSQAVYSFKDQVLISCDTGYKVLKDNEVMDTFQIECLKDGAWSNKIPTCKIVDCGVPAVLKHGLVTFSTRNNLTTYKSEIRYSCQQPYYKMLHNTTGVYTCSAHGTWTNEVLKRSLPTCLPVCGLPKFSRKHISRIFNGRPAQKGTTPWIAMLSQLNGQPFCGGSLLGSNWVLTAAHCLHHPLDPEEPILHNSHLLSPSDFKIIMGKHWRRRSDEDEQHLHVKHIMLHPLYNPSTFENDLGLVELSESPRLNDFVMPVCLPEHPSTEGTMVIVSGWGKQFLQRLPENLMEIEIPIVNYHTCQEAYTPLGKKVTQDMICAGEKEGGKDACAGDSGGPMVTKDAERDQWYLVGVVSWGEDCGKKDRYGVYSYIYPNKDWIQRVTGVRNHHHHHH
Test: cell-based or functional assay
Bridge positions count the residues as written; N and C are the ends. Square brackets hold non-standard residues; d marks the D form. Ends that are not written are not given here. * marks the point of attachment. Cyclobutylacetic = O=C(CC1CCC1)*; NMeI = CC[C@H](C)[C@H](NC)C(=O)O; tBuAla = CC(C)(C)C[C@H](N)C(=O)O; Pen = CC(C)(S)[C@H](N)C(=O)O
Enter your answer as a number in nM; do not include the unit.

binder: Cyclobutylacetic-ICSRS[tBuAla]PPI[Pen]IP-NH2 (disulfide 2-10; SMILES CC[C@H](C)[C@H](NC(=O)CC1CCC1)C(=O)N[C@H]1CSSC(C)(C)[C@@H](C(=O)N[C@H](C(=O)N2CCC[C@H]2C(N)=O)[C@@H](C)CC)NC(=O)[C@H]([C@@H](C)CC)NC(=O)[C@@H]2CCCN2C(=O)[C@@H]2CCCN2C(=O)[C@H](CC(C)(C)C)NC(=O)[C@H](CO)NC(=O)[C@H](CCCNC(=N)N)NC(=O)[C@H](CO)NC1=O) [Example 284: (Cyclobutylacetic)-IC+SRS-((tBu)A)-PPI-(Pen)+IP-NH2]
rat MASP1 IC50 [nM]: 60

Now for the binder whose rat MASP1 IC50 we want.
State the recorded rat MASP1 IC50 for this entry: G[NMeI]CSRSLPPICIPD-OH (disulfide 3-11; N-terminus assumed; SMILES CC[C@H](C)[C@@H]1NC(=O)[C@@H]2CCCN2C(=O)[C@@H]2CCCN2C(=O)[C@H](CC(C)C)NC(=O)[C@H](CO)NC(=O)[C@H](CCCNC(=N)N)NC(=O)[C@H](CO)NC(=O)[C@@H](NC(=O)[C@H]([C@@H](C)CC)N(C)C(=O)CN)CSSC[C@@H](C(=O)N[C@H](C(=O)N2CCC[C@H]2C(=O)N[C@@H](CC(=O)O)C(=O)O)[C@@H](C)CC)NC1=O) [Example 275: G-((N-Me)I)-C+SRSLPPIC+IPD-OH] 150
